System: Wolbachia pipientis
Assay: Anti-Wolbachia Cell-Based Screen
Assay type: functional
Set-up: scale not given: in the data most compounds retested in dose-response had high values
Details: 5 µM
The campaign covered roughly 48,000 compounds. About 13,000 (27%) showed an effect of 50% or more. This is one part of the list.
Provide the reported Percent Effect of each item.
Lab book: enter the figure in %, no units written.

response.value for "CCOCCn1nc(C)cc1C(=O)N1CC[C@](C)(O)[C@H](C)C1" (field: Percent Effect) = -22.18

response.value for "O=C(c1cn(CC(=O)N2CCCCCC2)c2ccccc12)C1CC1" (field: Percent Effect) = -6.817

response.value for CSC(CNS(=O)(=O)c1cnn(C)c1)c1cccc(Cl)c1 (stereo not given) (field: Percent Effect) = -0.2397

response.value for COC(=O)C1CCCCN1C(=O)c1ccc(N(C)C)cc1F (stereo not given) (field: Percent Effect) = -10.97

response.value for COc1c(C2CCCN2C(=O)c2cc(Cl)c[nH]2)c(C)nn1C (stereo not given) (field: Percent Effect) = 7.72

response.value for CCC(C)N(Cc1cccnc1)Cc1ccccc1Cn1cccn1 (stereo not given) (field: Percent Effect) = 1.099

response.value for "Cn1nc(CNC(=O)C2CCCCC2)cc1C1CC1" (field: Percent Effect) = 119.6

response.value for "Cc1cc(F)cc2c(NCC(C)(C)C(N)=O)c(C#N)cnc12" (field: Percent Effect) = -8.15

response.value for CCSCCC(C)N(C)C(=O)c1cc(C)on1 (stereo not given) (field: Percent Effect) = -12.53

response.value for "Cc1ccc2nc(N3CCN(CC(=O)NC(C)C)CC3)cc(C)c2c1" (field: Percent Effect) = 5.586

response.value for CC(Nc1ccc(Oc2cccc(C#N)c2)cc1)C(=O)NC1CC1 (stereo not given) (field: Percent Effect) = 1.244

response.value for "Cn1nc(CNC(=O)C2CC2)cc1C1CC1" (field: Percent Effect) = 4.922

response.value for CC(Cn1cccn1)NS(=O)(=O)Cc1ccc(F)cc1 (stereo not given) (field: Percent Effect) = 0.5755

response.value for "Cn1nc(CNC(=O)C2CCCC2)cc1C1CC1" (field: Percent Effect) = -4.336

response.value for "Cn1nc(CNC(=O)C2CCN(S(C)(=O)=O)CC2)cc1C1CC1" (field: Percent Effect) = 134.6

response.value for CCC(O)CNc1ccc(-c2nc(CC(C)C)no2)cn1 (stereo not given) (field: Percent Effect) = -5.208

response.value for "Cn1ccc(C(=O)NC2CCN(c3ncccn3)CC2)cc1=O" (field: Percent Effect) = 3.49

response.value for "CN(Cc1nnc(-c2cccs2)o1)Cc1nc2c(s1)CCCC2" (field: Percent Effect) = -3.278

response.value for Cc1nnc2n1CCN(CC(=O)NC(C)c1cccc3ccccc13)C2 (stereo not given) (field: Percent Effect) = -6.251

response.value for COc1c(C2CCCN2C(=O)c2cnc[nH]2)c(C)nn1C (stereo not given) (field: Percent Effect) = 99.16

response.value for "COCCNC(=O)CN1CCN(c2nc3cc(C)ccc3o2)CC1" (field: Percent Effect) = -13.48

response.value for Cc1ccc2c(c1)OC(C)(C)CC2NC(=O)C1CCN(S(C)(=O)=O)CC1 (stereo not given) (field: Percent Effect) = -7.671

response.value for CC(C(=O)N1CCCN(c2ccc(C#N)cc2)CC1)n1cccn1 (stereo not given) (field: Percent Effect) = 143.8

response.value for CC(C(=O)N1CCCN(c2ccc(C#N)cc2)CC1)n1ccnc1 (stereo not given) (field: Percent Effect) = -8.735

response.value for "O=C(CN1CCc2cncnc2C1)NCCOc1ccccc1" (field: Percent Effect) = -0.7298

Reference source for all entries: ChEMBL document CHEMBL3988442
